Test system: THP-1
Assay: Selectivity index, ratio of IC50 for human THP1 cells to IC50 for mouse S17 cells
Format: functional
Decide using Ratio IC50: a value greater than or equal to 0.9 is met, a smaller one is not met.

The examples below pair each entry with its known result.
- C/C(=N/O)C(c1c[nH]c2ccccc12)c1c[nH]c2ccccc12: not met
- C/C(=N\O)C(c1c[nH]c2ccccc12)c1c[nH]c2ccccc12: not met
- Cn1cc(C(/C(=N\O)c2ccc(Br)cc2)c2cn(C)c3ccccc23)c2ccccc21: not met
- COc1cc([C@@H]2c3cc4c(cc3[C@@H](O[C@@H]3O[C@@H]5CO[C@@H](C)O[C@H]5[C@H](O)[C@H]3O)[C@H]3COC(=O)[C@H]23)OCO4)cc(OC)c1O [ETOPOSIDE]: met

In: Textbook exercise: given the entry `O/N=C(/c1ccc(Br)cc1)C(c1c[nH]c2ccccc12)c1c[nH]c2ccccc12` , state whether its Ratio IC50 is greater than or equal to 0.9.
Out: met

---

System: THP-1
Test: Cytotoxicity against human THP1 cells assessed as reduction in cell viability after 72 hrs by MTT colorimetric assay
Type: functional, cell-based
Conditions: THP-1, 72 h
pIC50: −log10 of the molar value.
Decide using pIC50: a value greater than or equal to 5 is Condition met, a smaller one is Condition not met.

The examples below pair each entry with its known result.
* O/N=C(/c1ccc(Br)cc1)C(c1c[nH]c2ccccc12)c1c[nH]c2ccccc12 | Condition met
* Cn1cc(C(/C(=N\O)c2ccc(Br)cc2)c2cn(C)c3ccccc23)c2ccccc21 | Condition not met
* O/N=C(/c1ccccc1)C(c1c[nH]c2ccccc12)c1c[nH]c2ccccc12 | Condition not met
* C/C(=N/O)C(c1c[nH]c2ccccc12)c1c[nH]c2ccccc12 | Condition not met
* C/C(=N\O)C(c1c[nH]c2ccccc12)c1c[nH]c2ccccc12 | Condition not met
* COc1cc([C@@H]2c3cc4c(cc3[C@@H](O[C@@H]3O[C@@H]5CO[C@@H](C)O[C@H]5[C@H](O)[C@H]3O)[C@H]3COC(=O)[C@H]23)OCO4)cc(OC)c1O [ETOPOSIDE] | Condition met

Here is the next item to consider.
In: Textbook exercise: given the entry `O/N=C(/c1ccc(F)cc1)C(c1c[nH]c2ccccc12)c1c[nH]c2ccccc12` , state whether its pIC50 is greater than or equal to 5.
Out: Condition not met

---

System: HepG2
Assay: Cytotoxicity against human HepG2 cells assessed as reduction in cell viability after 72 hrs by MTT colorimetric assay
Assay type: functional, cell-based
Conditions: HepG2, 72 h
Please respond with reported IC50 for every item in the list.

Study these solved cases before continuing.
- COc1cc([C@@H]2c3cc4c(cc3[C@@H](O[C@@H]3O[C@@H]5CO[C@@H](C)O[C@H]5[C@H](O)[C@H]3O)[C@H]3COC(=O)[C@H]23)OCO4)cc(OC)c1O [ETOPOSIDE]: 1.4 µM
- Cn1cc(C(/C(=N\O)c2ccc(Br)cc2)c2cn(C)c3ccccc23)c2ccccc21: 35.7 µM
- O/N=C(/c1ccc(Br)cc1)C(c1c[nH]c2ccccc12)c1c[nH]c2ccccc12: 16.6 µM

In: Give IC50 (HepG2) of the following compound: `O/N=C(/c1ccccc1)C(c1c[nH]c2ccccc12)c1c[nH]c2ccccc12`
Out: 28 µM
